system: SNB-75; experiment: NCI tumour cell line growth inhibition, 48 h
Active and inactive are the calls of the source. No stated cut-off is given here; in the data, active = GI50 up to about 1.1 µM and inactive = higher.
Select the matching outcome among true (1) = active, false (0) = inactive

[[record]]
molecule = "CC(C)(C)Sc1nnc(SC(C)(C)C)c2c(SC(C)(C)C)nnc(O)c12"
qualitative_label = "false (0)"

[[record]]
molecule = "CCOC(=O)C1C(=O)CC(O)(c2ccccc2)C(C(=O)OCC)C1c1ccc(N(C)C)cc1 (stereo unspecified)"
qualitative_label = "false (0)"

[[record]]
molecule = "O=C1c2cccnc2-c2nccc3c2c1nc1ccccc13"
qualitative_label = "true (1)"


Problem: Called result for NC1=Nc2cc(C(F)(F)F)ccc2Sc2nc3ccccc3n21
Solution: false (0)

Problem: Another molecule: CCCCCCCCCCCCCP(=O)(NCC(N)=O)OCC (stereo unspecified)
Solution: false (0)

Problem: Try this molecule next: CC[C@@H]1OC2(C)CC(S(=O)(=O)c3ccccc3)CC1O2 (stereo partly specified)
Solution: false (0)

Problem: Can you handle CC1=NC(=N)N=C(C)C1/N=N/c1ccc2[nH]c(C)nc2c1 (stereo unspecified) next?
Solution: false (0)

Problem: Now give it for O=C(NCCCCCCCCNC(=O)c1cccc2ccccc12)c1cccc2ccccc12 too.
Solution: false (0)

Problem: Next up: C[C@@H]1C[C@H](O)[C@]2(O)O[C@@H]3C[C@@]4(C=O)[C@@H](CC[C@@H]5[C@@H]4CC[C@]4(C)[C@@H](C6=CC(=O)OC6)CC[C@]54O)C[C@H]3O[C@@H]2O1
Solution: true (1)

Problem: Same lookup for COc1ccc(C(=O)/C=C/c2ccc(OCCSCCCCCCCCCCSCCOc3ccc(/C=C/C(=O)c4ccc(OC)c(OC)c4)cc3)cc2)cc1OC , please.
Solution: false (0)

Problem: What about O=[N+]([O-])C(=C(NCc1ccccc1)NCc1ccccc1)C(Cl)=C(Cl)Cl ?
Solution: false (0)

Data origin: ChEMBL document CHEMBL1201862
